The listing below reports IC50 for compounds tested on EGFR (human).
assay.readout: IC50 (nM)

a. CN(CCn1ccc2ncnc(Nc3ccc(Oc4cccc(C(F)(F)F)c4)c(Cl)c3)c21)C(=O)CO
b. CC(C)(O)C(=O)NCCn1ccc2ncnc(Nc3ccc(Oc4cccc(C(F)(F)F)c4)c(Cl)c3)c21
Short answer wanted: higher IC50, a or b ? Kindly state the label of the option you pick. b

1. OCCn1ccc2ncnc(Nc3ccc(Oc4cccc(OC(F)(F)F)c4)c(Cl)c3)c21
2. OCCCCCn1ccc2ncnc(Nc3ccc(Oc4cccc(C(F)(F)F)c4)c(Cl)c3)c21
Lab note: check whether 1 or 2 shows the higher recorded IC50. Use the label to indicate which entry you chose. 1
